Source: patent US9000010B2

Below, each entry is listed with its recorded melting point.
Structures can show the parent of a compound that is named as a salt.
REPORTED ENDPOINT: melting point

MOLECULE	REPORTED ENDPOINT	OBS VALUE
N#Cc1ccc(OCCC2CCN(C(=O)OCc3cscn3)CC2)cc1	melting point	108 to 110 °C
NC(=O)c1cc(COC(=O)N2CCC(CCOc3ccc(OC(F)(F)F)cc3)CC2)on1	melting point	112 to 115 °C
NC(=O)c1cc(COC(=O)N2CC[C@@H](COc3ccc4ccccc4c3)C2)on1 (single isomer, unassigned)	melting point	138 to 140 °C
COc1ccc2cc(OCCC3CCN(C(=O)OCc4cscn4)CC3)ccc2c1	melting point	100 to 102 °C
O=C(OCc1cncs1)N1CCC(CCOc2ccc(Cl)cc2)CC1	melting point	93 to 97 °C
O=C(OCc1cscn1)N1CCC(COc2ccc3cnccc3c2)C1 (racemic)	melting point	122 to 124 °C
O=C(OCc1cncs1)N1CCC(CCOc2ccc(F)cc2)CC1	melting point	96 to 98 °C
O=C(OCc1cscn1)N1CCC(COc2ccc3ccccc3c2)C1 (racemic)	melting point	90 to 92 °C
O=C(OCc1nccs1)N1CCC(COc2ccc(-c3ccc(F)cc3)cc2)C1 (racemic)	melting point	81 to 83 °C
O=C(OCc1cscn1)N1CCC(CCOc2ccc3cnccc3c2)CC1 (as salt: HCl)	melting point	150 to 160 °C
O=C(OCc1cscn1)N1CCC(COc2ccc(Cl)c3ccccc23)C1 (racemic)	melting point	84 to 86 °C
CC(C)(c1ccccc1)c1ccc(OCC2CCN(C(=O)OCc3cscn3)C2)cc1 (racemic)	melting point	76 to 78 °C
O=C(OCc1cscn1)N1CCC(CCOc2ccc3ccccc3c2)CC1	melting point	88 to 90 °C
